- Test system: MS2 coat protein
- assay.summary: apparent KD of MS2 coat protein; designed switch direction (-1 OFF switch, 1 ON switch): -1; higher = weaker reporter binding
- condition: input ligand: FMN 200 uM
Please note: yes (1) applies when apparent KD of MS2 coat protein is 100 nM or greater, and no (0) applies otherwise.

Past entries and their recorded results:
sequence.text | qualitative.label
CCACGUCCGUACGUGUACUUGUCUCCUGUGUGCCCGGGUACAUGAGGAUCACCCAUGUCUGUGCUCGCCUUCUGCCC [JR_Sensorv2_tov2_Sub724] (Eterna round: R96, puzzle: Sensor v2, turn-off variant 2) | yes (1)
AGCAUGUUAGGAUAUGCCAAAAUUAACCACGACUCAGUGAUGCAGAAGGAACAUGAGGAUCACCCAUGUGCUCC [Eternabot (L1) Solution 16] (Eterna round: R97, puzzle: Exclusion 4) | yes (1)
AGAUGCUCGAGUCGACAUGAGGAUCACCCAUGUACAGUUAAUGAGGAUAUCUGAGACAAAUAGUAGGAGAAGGCGUGAACAUGA [Ex NG3 #11] (Eterna round: R96, puzzle: Exclusion NG 3) | yes (1)

Here's the next entry for you.
Say whether UUAAAUCAUGUAGGAUAUGCGUUGCGAAGCGAUGCAGAAGGACAUGAGGAUCACCCAUGUGCUAGCGUCCGCGUACGGAUGCAA [Mat - Exclusion NG 1 - Mod of JL - D60] (Eterna round: R96, puzzle: Exclusion NG 1) shows apparent KD of MS2 coat protein of 100 nM or more. yes (1)
